Reported IC50 values for a set of compounds
target or test system: Protein arginine N-methyltransferase 8 (Homo sapiens, UniProt Q9NR22)
Sequence (Q9NR22 whole entry): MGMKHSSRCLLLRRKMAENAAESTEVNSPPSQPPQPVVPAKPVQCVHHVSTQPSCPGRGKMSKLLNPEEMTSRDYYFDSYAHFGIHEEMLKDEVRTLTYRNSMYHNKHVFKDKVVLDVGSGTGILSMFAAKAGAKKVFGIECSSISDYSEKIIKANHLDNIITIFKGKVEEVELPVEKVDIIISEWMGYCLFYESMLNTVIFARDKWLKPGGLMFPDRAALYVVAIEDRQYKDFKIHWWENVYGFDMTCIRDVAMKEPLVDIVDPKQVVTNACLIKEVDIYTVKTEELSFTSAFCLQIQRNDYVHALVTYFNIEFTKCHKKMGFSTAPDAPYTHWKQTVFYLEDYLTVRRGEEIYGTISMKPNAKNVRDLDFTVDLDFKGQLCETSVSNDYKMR
procedure summary: Inhibition of human PRMT8 using 24 residues of biotin labelled histone4 substrate and tritiated 3H-S-adenosylmethionine by scintillation proximity assay
# output: bare number, implied unit µM

[
  {
    "input smiles": "CNCCN(C)C",
    "target or test system": "Protein arginine N-methyltransferase 8 (Homo sapiens, UniProt Q9NR22)",
    "IC50, µM": 7
  }
]

Here's the next entry for you.
Challenge: Please respond with reported IC50 (system Protein arginine N-methyltransferase 8 (Homo sapiens, UniProt Q9NR22)) for NCCN1CCC(Cc2ccccc2)CC1 .
Response given: 2.1

This collection of values is drawn from ChEMBL document CHEMBL3779843.
